# Lookup of reported relative viability keyed by entry
- System: NCI-H1993
- Assay comment: relative viability (nuclei count vs DMSO), 5 days (fraction); higher = more cells survive
- Study conditions: first compound 2.53 µM
Give the value as a plain number.

Field: example entries. Status: answers known.
Cc1cnc(-c2cnc(NCCNc3ccc(C#N)cn3)nc2-c2ccc(Cl)cc2Cl)[nH]1 + C[C@]1(O)C[C@@H](c2nc(-c3ccc4ccc(-c5ccccc5)nc4c3)c3c(N)nccn32)C1 [Linsitinib] (partner 1 µM): 0.784
O=c1[nH]c2ccccc2n1C1CCN(CCCC(c2ccc(F)cc2)c2ccc(F)cc2)CC1 [Pimozide] + CS(=O)(=O)CCNCc1ccc(-c2ccc3ncnc(Nc4ccc(OCc5cccc(F)c5)c(Cl)c4)c3c2)o1 [Lapatinib] (partner 2 µM): 0.788
Cc1cnc(-c2cnc(NCCNc3ccc(C#N)cn3)nc2-c2ccc(Cl)cc2Cl)[nH]1 + CS(=O)(=O)CCNCc1ccc(-c2ccc3ncnc(Nc4ccc(OCc5cccc(F)c5)c(Cl)c4)c3c2)o1 [Lapatinib] (partner 2 µM): 0.937
Cc1cnc(-c2cnc(NCCNc3ccc(C#N)cn3)nc2-c2ccc(Cl)cc2Cl)[nH]1 + COc1cccc2cc(-c3nc([C@H]4CC[C@H](C(=O)O)CC4)n4ncnc(N)c34)[nH]c12 [OSI-027] (partner 0.5 µM): 0.577

From here, focus on the item given below.
# relative viability (compound: O=c1[nH]c2ccccc2n1C1CCN(CCCC(c2ccc(F)cc2)c2ccc(F)cc2)CC1 [Pimozide] + NC(=O)Nc1cc(-c2cccc(F)c2)sc1C(=O)N[C@H]1CCCNC1 [AZD7762] (partner 0.2 µM) ) is 0.675

----------
- Tested on: COR-L23
- Assay comment: relative viability (nuclei count vs DMSO), 5 days (fraction); higher = more cells survive
- Study conditions: first compound 0.01581 µM
Measure: relative viability
Please reply with the value in numeric form only.

COc1cc2nccc(Oc3ccc(NC(=O)Nc4cc(C)on4)c(Cl)c3)c2cc1OC [Tivozanib] + Nc1ncn([C@H]2C[C@H](O)[C@@H](CO)O2)c(=O)n1 [Decitabine] (partner 2 µM): 0.398
Nc1ccn([C@@H]2O[C@H](CO)[C@@H](O)[C@@H]2O)c(=O)n1 [Cytarabine] + Nc1ncn([C@H]2C[C@H](O)[C@@H](CO)O2)c(=O)n1 [Decitabine] (partner 2 µM): 0.377

Recorded result, COc1cc2nccc(Oc3ccc(NC(=O)Nc4cc(C)on4)c(Cl)c3)c2cc1OC [Tivozanib] + CCNC(=O)c1noc(-c2cc(C(C)C)c(O)cc2O)c1-c1ccc(CN2CCOCC2)cc1 [Luminespib] (partner 0.01 µM) , relative viability: 0.607

----------
- Tested on: H3255
- Assay comment: relative viability (nuclei count vs DMSO), 5 days (fraction); higher = more cells survive
- Study conditions: first compound 0.005 µM
Let's look at some compounds and their measured relative viability.
API note: the answer field is a bare number with no unit suffix.

Readout relative viability for COc1cc2nccc(Oc3ccc(NC(=O)Nc4cc(C)on4)c(Cl)c3)c2cc1OC [Tivozanib] + CCNC(=O)c1noc(-c2cc(C(C)C)c(O)cc2O)c1-c1ccc(CN2CCOCC2)cc1 [Luminespib] (partner 0.01 µM) , test system H3255, was 0.69

GET /values?item= Nc1ccn([C@@H]2O[C@H](CO)[C@@H](O)[C@@H]2O)c(=O)n1 [Cytarabine] + C[C@@H](Oc1cc(-c2cnn(C3CCNCC3)c2)cnc1N)c1c(Cl)ccc(F)c1Cl [Crizotinib] (partner 1 µM) &system= H3255 returns relative viability: 0.76

Reported H3255 relative viability for item COc1cc2nccc(Oc3ccc(NC(=O)Nc4cc(C)on4)c(Cl)c3)c2cc1OC [Tivozanib] + CC(C)C[C@H](NC(=O)[C@H](Cc1ccccc1)NC(=O)c1cnccn1)B(O)O [Bortezomib] (partner 0.002 µM) was 0.739

# value of relative viability, H3255, item COc1cc2nccc(Oc3ccc(NC(=O)Nc4cc(C)on4)c(Cl)c3)c2cc1OC [Tivozanib] + O=C(c1cc(Cc2n[nH]c(=O)c3ccccc23)ccc1F)N1CCN(C(=O)C2CC2)CC1 [Olaparib] (partner 8 µM) = 0.544

Value sought: relative viability, system H3255, item Nc1ccn([C@@H]2O[C@H](CO)[C@@H](O)[C@@H]2O)c(=O)n1 [Cytarabine] + CS(=O)(=O)CCNCc1ccc(-c2ccc3ncnc(Nc4ccc(OCc5cccc(F)c5)c(Cl)c4)c3c2)o1 [Lapatinib] (partner 2 µM) . Result: 0.268

H3255 relative viability of Nc1ccn([C@@H]2O[C@H](CO)[C@@H](O)[C@@H]2O)c(=O)n1 [Cytarabine] + N=C(N)NC(=N)NCCc1ccccc1 [Phenformin] (partner 250 µM) is 0.301

Considering Nc1ccn([C@@H]2O[C@H](CO)[C@@H](O)[C@@H]2O)c(=O)n1 [Cytarabine] + Cc1cc(Nc2cc(N3CCN(C)CC3)nc(Sc3ccc(NC(=O)C4CC4)cc3)n2)n[nH]1 [Tozasertib] (partner 0.1 µM) , its relative viability with H3255 was recorded as 0.586

Summary: Nc1ccn([C@@H]2O[C@H](CO)[C@@H](O)[C@@H]2O)c(=O)n1 [Cytarabine] + O=C(c1cc(Cc2n[nH]c(=O)c3ccccc23)ccc1F)N1CCN(C(=O)C2CC2)CC1 [Olaparib] (partner 8 µM) , H3255, relative viability = 0.569

Short answer on H3255 for Nc1ccn([C@@H]2O[C@H](CO)[C@@H](O)[C@@H]2O)c(=O)n1 [Cytarabine] + NC(=O)Nc1cc(-c2cccc(F)c2)sc1C(=O)N[C@H]1CCCNC1 [AZD7762] (partner 0.2 µM) , relative viability: 0.945

----------
- System: NCI-H2023
- Assay comment: relative viability (nuclei count vs DMSO), 5 days (fraction); higher = more cells survive
- Study conditions: first compound 158.11 µM
Measure: relative viability
Number only, please.

Form field relative viability, entry O=C(O)CCCCC(CCSCc1ccccc1)SCc1ccccc1 (stereo not drawn) [CPI-613] + Nc1ncn([C@H]2C[C@H](O)[C@@H](CO)O2)c(=O)n1 [Decitabine] (partner 2 µM) : 0.0918

The recorded relative viability for O=C(O)CCCCC(CCSCc1ccccc1)SCc1ccccc1 (stereo not drawn) [CPI-613] + O=C(c1cc(Cc2n[nH]c(=O)c3ccccc23)ccc1F)N1CCN(C(=O)C2CC2)CC1 [Olaparib] (partner 8 µM) is 0.134

The measured relative viability associated with O=C(O)CCCCC(CCSCc1ccccc1)SCc1ccccc1 (stereo not drawn) [CPI-613] + CCNC(=O)c1noc(-c2cc(C(C)C)c(O)cc2O)c1-c1ccc(CN2CCOCC2)cc1 [Luminespib] (partner 0.01 µM) reads 0.052

----------
- Test system: NCI-H1395
- Assay comment: relative viability (nuclei count vs DMSO), 5 days (fraction); higher = more cells survive
- Study conditions: first compound 0.02 µM
Measure: relative viability
Please reply with the value in numeric form only.

Here is how some molecules turned out for relative viability.
CC(=O)O[C@@]12CO[C@@H]1C[C@H](O)[C@@]1(C)C(=O)[C@H](O)C3=C(C)[C@@H](OC(=O)[C@H](O)[C@@H](NC(=O)OC(C)(C)C)c4ccccc4)C[C@@](O)([C@@H](OC(=O)c4ccccc4)[C@H]21)C3(C)C [Docetaxel] + O=C(CCCCCCC(=O)Nc1ccccc1)NO [Vorinostat] (partner 1 µM): 0.239
CC(=O)O[C@@]12CO[C@@H]1C[C@H](O)[C@@]1(C)C(=O)[C@H](O)C3=C(C)[C@@H](OC(=O)[C@H](O)[C@@H](NC(=O)OC(C)(C)C)c4ccccc4)C[C@@](O)([C@@H](OC(=O)c4ccccc4)[C@H]21)C3(C)C [Docetaxel] + COc1cccc2cc(-c3nc([C@H]4CC[C@H](C(=O)O)CC4)n4ncnc(N)c34)[nH]c12 [OSI-027] (partner 0.5 µM): 0.272
CC(=O)O[C@@]12CO[C@@H]1C[C@H](O)[C@@]1(C)C(=O)[C@H](O)C3=C(C)[C@@H](OC(=O)[C@H](O)[C@@H](NC(=O)OC(C)(C)C)c4ccccc4)C[C@@](O)([C@@H](OC(=O)c4ccccc4)[C@H]21)C3(C)C [Docetaxel] + Nc1nc2[nH]cc(CCc3ccc(C(=O)N[C@@H](CCC(=O)O)C(=O)O)cc3)c2c(=O)[nH]1 [Pemetrexed] (partner 0.2 µM): 0.246

Entry under test: CC(=O)O[C@@]12CO[C@@H]1C[C@H](O)[C@@]1(C)C(=O)[C@H](O)C3=C(C)[C@@H](OC(=O)[C@H](O)[C@@H](NC(=O)OC(C)(C)C)c4ccccc4)C[C@@](O)([C@@H](OC(=O)c4ccccc4)[C@H]21)C3(C)C [Docetaxel] + Cc1nc(Nc2ncc(C(=O)Nc3c(C)cccc3Cl)s2)cc(N2CCN(CCO)CC2)n1 [Dasatinib] (partner 0.075 µM) . Its relative viability was 0.272

Value of measured relative viability for the entry CC(=O)O[C@@]12CO[C@@H]1C[C@H](O)[C@@]1(C)C(=O)[C@H](O)C3=C(C)[C@@H](OC(=O)[C@H](O)[C@@H](NC(=O)OC(C)(C)C)c4ccccc4)C[C@@](O)([C@@H](OC(=O)c4ccccc4)[C@H]21)C3(C)C [Docetaxel] + Nc1ncn([C@H]2C[C@H](O)[C@@H](CO)O2)c(=O)n1 [Decitabine] (partner 2 µM) : 0.295

Form: molecule = CC(=O)O[C@@]12CO[C@@H]1C[C@H](O)[C@@]1(C)C(=O)[C@H](O)C3=C(C)[C@@H](OC(=O)[C@H](O)[C@@H](NC(=O)OC(C)(C)C)c4ccccc4)C[C@@](O)([C@@H](OC(=O)c4ccccc4)[C@H]21)C3(C)C [Docetaxel] + O=C(c1cc(Cc2n[nH]c(=O)c3ccccc23)ccc1F)N1CCN(C(=O)C2CC2)CC1 [Olaparib] (partner 8 µM) ; relative viability = 0.339

Noted for CC(=O)O[C@@]12CO[C@@H]1C[C@H](O)[C@@]1(C)C(=O)[C@H](O)C3=C(C)[C@@H](OC(=O)[C@H](O)[C@@H](NC(=O)OC(C)(C)C)c4ccccc4)C[C@@](O)([C@@H](OC(=O)c4ccccc4)[C@H]21)C3(C)C [Docetaxel] + Cc1nc(NC(=O)N2CCC[C@H]2C(N)=O)sc1-c1ccnc(C(C)(C)C(F)(F)F)c1 [Alpelisib] (partner 2 µM) : its relative viability reads 0.307
